Collected pIC50 for VEGF-R2 (Rattus norvegicus) across several studies; molecules listed below.
pIC50: −log10 of the molar value.

Some molecules with recorded pIC50:
>  <Given smiles>
O=C(Nc1cccc2sc(Nc3ccccc3)nc12)C1CCCCCC1

>  <Property>
pIC50

>  <Value reported>
< 4.00

$$$$
>  <Given smiles>
CN1CCC(NC(=O)c2sc3ncc(C#N)c4c3c2NC(=O)N4c2c(Cl)ccc3c2OCO3)CC1

>  <Property>
pIC50

>  <Value reported>
~4.00

$$$$
>  <Given smiles>
CCOC(=O)c1cncc(-c2cnc3[nH]nc(-c4nc5c(COC)cccc5[nH]4)c3c2)c1

>  <Property>
pIC50

>  <Value reported>
~4.00

$$$$
>  <Given smiles>
Nc1nc(Nc2cccc([N+](=O)[O-])c2)ccc1C(=O)c1c(F)cccc1F

>  <Property>
pIC50

>  <Value reported>
< 4.00

$$$$
>  <Given smiles>
COc1cc(N2C(=O)Nc3c(C(=O)Nc4ccc(CN5CCOCC5)cc4)sc4ncc(C#N)c2c34)c(Cl)cc1Cl

>  <Property>
pIC50

>  <Value reported>
< 4.00

$$$$

(Q) Give recorded pIC50. `Nc1ccc(C(=O)c2ccccc2)c(N)n1`
(A) < 5.00

(Q) Assign pIC50 to the following record: `O=C(Nc1cccc2sc(Nc3ccccc3)nc12)c1ccc(N2CCOCC2)nc1`
(A) < 4.00

(Q) Identify measured pIC50 associated with `CCCCNCc1cncc(-c2cnc3[nH]nc(-c4nc5c(COC)cccc5[nH]4)c3c2)c1`
(A) ~6.00

(Q) Query pIC50 for `COCc1cccc2[nH]c(-c3n[nH]c4ncc(-c5cncc(CN)c5)cc34)nc12`
(A) < 5.00

(Q) State its pIC50 for this molecule: `CCNCc1cncc(-c2cnc3[nH]nc(-c4nc5cc(F)c(F)cc5[nH]4)c3c2)c1`
(A) ~7.00

(Q) Report pIC50 for `O=C(Nc1ccccc1F)Nc1cccc2sc(Nc3ccccc3)nc12`
(A) < 4.00

(Q) Write down pIC50 measured for item `Cc1ccc(F)c(C(=O)Nc2cccc3sc(Nc4ccccc4)nc23)c1F`
(A) 5.34

(Q) Indicate the recorded pIC50 value for this molecule: `COC(=O)c1cccc2[nH]c(-c3n[nH]c4ncc(-c5cncc6ccccc56)cc34)nc12`
(A) ~4.00

(Q) Entry `CCC(=O)Nc1cccc2sc(Nc3ccccc3)nc12` needs its pIC50 filled in; supply it.
(A) < 4.00

(Q) Given the molecule `COc1ccc2[nH]c(-c3ccc(NC(C)=O)c4c3C(=O)NC4)cc2c1` , write its reported pIC50.
(A) < 4.00

(Q) Tell me measured pIC50 for `O=C(Nc1cccc2sc(Nc3ccccc3)nc12)c1ccc2ccccc2c1` please.
(A) < 4.00

(Q) Input `O=C(Nc1ccccc1)Nc1cccc2sc(Nc3ccccc3)nc12` , output reported pIC50.
(A) < 4.00

(Q) Please report pIC50 for the following molecule: `N#Cc1cnc2sc(C(=O)Nc3ccc(CCN4CCCCC4)cc3)c3c2c1N(c1c(Cl)ccc2c1OCO2)C(=O)N3`
(A) < 4.00

(Q) Name the recorded pIC50 of the item `O=C(Nc1cccc2sc(Nc3ccccc3)nc12)c1ccccc1Br` in your answer.
(A) < 4.00

(Q) State its pIC50 for this molecule: `CN(C)C1CCN(C(=O)c2sc3ncc(C#N)c4c3c2NC(=O)N4c2c(Cl)ccc3c2OCO3)CC1`
(A) < 4.00

(Q) Hello, please tell me recorded pIC50 for this one: `CNCc1cncc(-c2cnc3[nH]nc(-c4nc5cc6c(cc5[nH]4)OC(F)(F)O6)c3c2)c1`
(A) ~7.00
